- assay details: Steady state oral/IV rat PK and compound penetration into spine and brain (Example 16)
- Format: in vivo, Sprague-Dawley rats
- study conditions: male, Sprague-Dawley, rat, plasma, po, 20 mg/kg, DAY 1, 20 mg/kg PO, plasma
- Procedure: It is important if one is observing biochemical effects in the spine and brain that one is able to show clear evidence that the compound being tested is in fact able to penetrate to those areas of the body. […] On the third after dosing the rats were then sacrificed after taking blood samples and the level of compound measured in the spine and brain. […] […] The plasma, brain and spinal tissue samples were analyzed for test article concentration using a Research Grade LC-MS/MS Assay.
measurement name: AUC(0-t) (ng·h/mL)
Give a bare numeral; the unit ng·h/mL is implied.

Request: Request the reported AUC(0-t) associated with `[2H]C([2H])([2H])c1ccc(C#Cc2ccc(S(=O)(=O)N[C@H](Cc3c[nH]c4ccccc34)C(=O)O)s2)cc1`
Result: 6410
